# method_notes: NCI Yeast Anticancer Drug Screen. Data for the cln2 rad14 strain (AID 165);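 note: 0% = growth equal to vehicle treated cultures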
# assay_context: S. cerevisiae cln2 rad14 strain, at 50.0 µM (retest, dose inferred, filed as 5.0), hits give high values
The panel holds about 79,000 compounds, 15% with a hit somewhere; the sample as a whole holds those more often. Activity calls are given as the source filed them. Cut-off read from the data, not from the text of the source: active = growth inhibition above about 70%; inactive = the rest.
Measured growth inhibition values are reported for all entries that follow.

The examples below pair each entry with its known result.
>  <compound>
CCCNCC/C=C/[Si](C)(C)C

>  <result>
99% (active)

$$$$
>  <compound>
Clc1ccccc1CCc1cc(-c2ccccc2)n[nH]1

>  <result>
97% (active)

$$$$
>  <compound>
CCOC(=O)C1CN(CCCCCCN2CC(C(=O)OCC)C(=O)C2=O)C(=O)C1=O (configuration not stated)

>  <result>
0% (inactive)

$$$$
>  <compound>
Nc1nc(=O)[nH]c([O-])c1N=O.Nc1nc(=O)[nH]c([O-])c1N=O.[Ag+].[Ag+]

>  <result>
-17% (inactive)

$$$$
>  <compound>
CCCCCCCOC(=O)CSC#N

>  <result>
99% (active)

$$$$

IN: For the compound CC(=O)OC(OC(C)=O)c1ccc([N+](=O)[O-])s1 , what growth inhibition is on record?
OUT: 99% (active)

IN: For the compound CN(C)C(=S)NC(=S)Nc1ccc2ccccc2c1 , what growth inhibition is on record?
OUT: 87% (active)

IN: For the compound O=C(CSc1nccc(=O)[nH]1)c1ccccc1 , what growth inhibition is on record?
OUT: 4% (inactive)

IN: For the compound COc1ccccc1C(=O)c1c(C(=O)O)ccc2ccccc12 , what growth inhibition is on record?
OUT: -3% (inactive)

====

# method_notes: NCI Yeast Anticancer Drug Screen. Data for the cln2 rad14 strain (AID 165);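 note: 0% = growth equal to vehicle treated cultures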
# assay_context: S. cerevisiae cln2 rad14 strain, at 50.0 µM (retest, dose inferred, filed as 5.0), hits give high values
About 79,000 compounds went through this panel and 15% of them were active in at least one assay; those are over-represented in the sample as a whole.
property_label: growth inhibition (%)
Field format: number, assumed %, no unit text.

>  <compound>
COC1OC(COC(=O)c2ccccc2)CC1F (configuration not stated)

>  <unit_spec>
%

>  <result_number>
-2

$$$$
>  <compound>
CC(=O)N1C(c2[nH]c3ccccc3c2-c2ccccc2)CCN1c1ccccc1 (configuration not stated)

>  <unit_spec>
%

>  <result_number>
73

$$$$
>  <compound>
COc1ccc(C2c3cc4c(cc3OC(C)(O)C2C)OCO4)cc1 (configuration not stated)

>  <unit_spec>
%

>  <result_number>
84

$$$$
>  <compound>
Oc1cc(O)cc(O)c1

>  <unit_spec>
%

>  <result_number>
17

$$$$
>  <compound>
C[n+]1c(/C=C/c2ccc(Cl)cc2)sc2ccccc21

>  <unit_spec>
%

>  <result_number>
28

$$$$
>  <compound>
O=C1NC(=O)C(c2ccccc2)(c2ccccc2)C2CC3c4[nH]c5ccccc5c4CCN3CC12 (configuration not stated)

>  <unit_spec>
%

>  <result_number>
66

$$$$
>  <compound>
O/N=C(/CN1CCN(c2ccccc2)CC1)c1ccccc1

>  <unit_spec>
%

>  <result_number>
1

$$$$
>  <compound>
FC(F)(F)c1ccc(-c2ccc(OCCN3CCCC3)cc2)cc1

>  <unit_spec>
%

>  <result_number>
40

$$$$
>  <compound>
O=c1c2ccccc2ncn1Cc1ccccc1[N+](=O)[O-]

>  <unit_spec>
%

>  <result_number>
-17

$$$$
>  <compound>
COc1ccccc1NC(=O)C1=C(C)NC(C)=C(C(=O)Nc2ccccc2OC)C1c1ccc(C2C(C(=O)Nc3ccccc3OC)=C(C)NC(C)=C2C(=O)Nc2ccccc2OC)cc1

>  <unit_spec>
%

>  <result_number>
77

$$$$

IN: For the compound NC(=O)N/N=C/c1ccc(Cl)s1 , what growth inhibition is on record?
OUT: 10

IN: For the compound c1ccc(-c2cc(N3CCCCC3)c(-c3ccccc3)o2)cc1 , what growth inhibition is on record?
OUT: 0

IN: For the compound CCN(CC)CCNc1ccc(C)c2sc3c(OC)cccc3c(=O)c12 , what growth inhibition is on record?
OUT: 8

IN: For the compound CCOC(=O)C(=C=C=C(c1ccccc1)c1ccccc1)C(=O)OCC , what growth inhibition is on record?
OUT: 1

IN: For the compound CC(=O)Oc1cc2c(=O)oc3c(OC(C)=O)c(OC(C)=O)c(OC(C)=O)c4c(=O)oc(c1OC(C)=O)c2c34 , what growth inhibition is on record?
OUT: 40

IN: For the compound OCCCNc1nc2c(Cl)cc(Cl)cc2c2ccccc12 , what growth inhibition is on record?
OUT: -16

IN: For the compound CC1=C(c2ccccc2)C(=O)OC1=O , what growth inhibition is on record?
OUT: 3

IN: For the compound COc1ccc(NC(=O)CC(=O)n2nc(-c3ccccc3)c(N=Nc3ccc(C)cc3)c2-c2ccccc2)cc1 , what growth inhibition is on record?
OUT: 20

IN: For the compound OC(CC(CC(O)(C(F)(F)Cl)C(F)(F)Cl)=NNc1ccccc1)(C(F)(F)Cl)C(F)(F)Cl , what growth inhibition is on record?
OUT: 99

IN: For the compound O=C(C1=Cc2ccccc2OC1)N1CCN(c2cccc(Cl)c2)CC1 , what growth inhibition is on record?
OUT: 97

IN: For the compound Cc1cc(N=NC(N)=S)c2ccccc2c1O , what growth inhibition is on record?
OUT: -23

IN: For the compound O=NNc1ncc(Sc2ccccc2)nc1Sc1ccccc1 , what growth inhibition is on record?
OUT: 11
